Reference source for all entries: PubChem BioAssay (NCI)

experiment: NCI Yeast Anticancer Drug Screen. Data for the cln2 rad14 strain (AID 165);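 further: 0% = growth equal to vehicle treated cultures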; conditions: S. cerevisiae cln2 rad14 strain, at 50.0 µM, hits give high values
About 79,000 compounds went through this panel and 15% of them were active in at least one assay; those are over-represented in the sample as a whole.
measured attribute: growth inhibition (%)
Give just the numeric value; % need not be written.

molecule | growth inhibition (%)
COc1ccc([As]=O)cc1N (stereo not given) | 7.25

# get_value(readout='growth inhibition', item= "O=C1C=CC2(C=C1)CCN=c1c(O)c3c(c(O)c12)=NC=N3" ) 29.2

Same lookup for "O=P(O)(O)SP(=O)(O)O.[Mn]" , please. -30.2

"O=Cc1ccccc1O.[La]" , same question. -5.45

Now this one: CC(C)(O)OC1COC(C2CS2)C1O (stereo not given) 34.8

Also O=C(C/C(=N/O)C(=O)NC1=C(Cl)C(=O)c2ccccc2C1=O)CC(c1ccccc1)c1c(O)c2ccccc2oc1=O (stereo not given) ? 76.8

And the next one, "COc1cc(-c2ccc(N)c(OC)c2)ccc1N" ? 5.8

For "Nc1nc(N)c(N=Nc2ccc([As](=O)(O)O)c(O)c2)c(N)n1" then? -18.4

Would you kindly repeat that for CC(C)OP(=O)(OCCCO)C(Cl)Cl (stereo not given) ? 2.55

Also "CC1(C)OCC(CO)(Nc2nc(N3CC3)nc(N3CC3)n2)CO1" ? -38

Moving on to "COc1ccn(C)c(=O)c1C#N" 5.6

One more molecule: "CCC[CH2][Sn]([CH2]CCC)([CH2]CCC)[CH2]CCNCCCN(C)C" 99

Could you do the same for "CN1CC[CH2][Sn]([Cl])([Cl])[CH2]CC1" , please? 1.3

One more molecule: "N[C@@H](Cc1ccc2oc3cc(=O)c4ccccc4c-3nc2c1)C(=O)O" 39.2

Could you do the same for "CC(CO)([N+](=O)[O-])[N+](=O)[O-]" , please? -0.1

Param item: CNP(=S)(Oc1cc(Cl)c(Cl)cc1Cl)N1CCN(c2ccc(Cl)cc2)CC1 (stereo not given) -0.9

Next record, please: CC12CCC3C(CCC4CC(Cl)CCC43C)C1CCC2=O (stereo not given) -59.4

What do we get for "CN(CCC#N)c1ccc(C=C(C#N)C#N)cc1" ? 8.05

Field entry: "Cc1ccc(P(=S)(c2ccccc2)c2ccccc2)c2ccccc12" 10.6

Repeat for the following molecule: "CC1(C)CN=C(Nc2ccc(F)c(Cl)c2)S1" 9.8
